Here, each record is paired with measured protein stability index data.
B1: ATL3 (parent)
chain: YGLQGGMAFLDKRLQVKEHQHEEI

# Variants of: B1
# test_summary: protein stability index of a GFP-peptide fusion (GPS, HEK-293T) (PSI 1-6); higher = more stable;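 further: lentivirally expressed fusions sorted by FACS into six bins by GFP to DsRed ratio, PSI derived from sequencing read proportions per bin multiplied by bin number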
# particulars: c terminus: a fixed tail appended
experimental_endpoint: protein stability index

mutation_notation | value_measured
A8P | 2.93
E23P | 3.04
E23C | 3.04
L3K | 2.93

Reference source for all entries: the supplement of paper PMC10567573
